Measured TDCC Jeko1 EC50, listed per entry for reference.
Target: T1, human BCMA on BCMA expressing cell lines (human, UniProt Q02223 1-184)
T1 sequence: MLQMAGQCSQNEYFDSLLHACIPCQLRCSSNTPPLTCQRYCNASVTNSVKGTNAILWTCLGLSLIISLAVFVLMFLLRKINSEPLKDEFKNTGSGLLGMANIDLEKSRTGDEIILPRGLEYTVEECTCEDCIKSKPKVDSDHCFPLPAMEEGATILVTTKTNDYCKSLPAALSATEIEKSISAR
Assay: cell-based or functional assay
All answers are understood in pM, so give the number only.

[
  {
    "Binder": "02G02-M34G TriTAC (other, not shown: large carriers; small tags and cut ends, trispecific) VHH: EVQLVESGGGLVQPGRSLTLSCAASTNIFSITPGGWYRQAPGKQRELVAAIHGASTLYADSVKGRFTISRDNAKNSIYLQMNSLRPEDTALYYCNKVPWGDYHPGNVYWGQGTQVTVSS",
    "Test Readout": "TDCC Jeko1 EC50",
    "Recorded Result": 12
  }
]

In: Data request, read-out TDCC Jeko1 EC50, for 01F07-M34Y TriTAC (other, trispecific; not shown: anti-albumin domain, anti-CD3 domain and the linkers of the TriTAC; the C-terminal His6 that follows them is left out) VHH: EVQLVESGGGLVQPGRSLTLSCAASTNIFSTSPYGWYRQAPGKQRELVAAIHGFSTIYADSVKGRFTISRDNAKNSIYLQMNSLRPEDTALYYCNKVPWGDYHPGNVYWGQGTQVTVSS
Out: 5.6

In: Data request, read-out TDCC Jeko1 EC50, for BCMA targeting trispecific protein 01H08 (other, trispecific; also called 01H08 TriTAC; not shown: the C-terminal His6 follows those missing domains and is left out) VHH: EVQLVESGGGLVQPGRSLTLSCAASTNIMSISPMGWYRQAPGKQRELVAAIHGFSTVYADSVKGRFTISRDNAKNSIYLQMNSLRPEDTALYYCNKVPWGDYHPGNVYWGQGTQVTVSS
Out: 4

In: Data request, read-out TDCC Jeko1 EC50, for BCMA targeting trispecific protein 01G08 (other, not shown: large carriers; small tags and cut ends, trispecific; also called 01G08 TriTAC) VHH: EVQLVESGGGLVQPGRSLTLSCAASTNIQSISPMGWYRQAPGKQRELVAAIHGFETLYADSVKGRFTISRDNAKNSIYLQMNSLRPEDTALYYCNKVPWGDYHPGNVYWGQGTQVTVSS
Out: 15
